- Tested on: ATP;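 further: ATP exposure 15 min at 22 °C before imaging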
- Assay: switch fluorescence ratio, 500 uM ATP over buffer (Cy3 cluster intensity, sum of 5 cycles each) (fold (ratio)); higher = stronger signal-on switching upon ATP binding; sequences stand for … in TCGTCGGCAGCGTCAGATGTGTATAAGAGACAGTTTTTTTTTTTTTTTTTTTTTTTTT…TC
- Run Parameters: aptamer strand: ATP DNA aptamer (quencher-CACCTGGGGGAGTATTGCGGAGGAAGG + anchor), 100 nM annealed; ATP concentration: 500 uM

| Biopolymer Sequence | Target Under Test | switch fluorescence ratio |
| --- | --- | --- |
| TAGTTACTGG | ATP | 1.05 |
| ATGAGTGTGT | ATP | 0.984 |
| TGGGGGGATT | ATP | 1.01 |
| CCACAAGGGG | ATP | 1.02 |
| GGATAGGTAC | ATP | 1.05 |
| TGAGCGGGAA | ATP | 1.01 |
| TGTTTCCCGT | ATP | 1 |
| GGTTATAATT | ATP | 1 |
| CTTGAAGATG | ATP | 0.973 |
| GAGTGACCGA | ATP | 1.01 |
| CGGCGGGAAG | ATP | 1 |
| TCGGTCCTGC | ATP | 1 |
| AGGGTTGAGA | ATP | 0.985 |
| TTTGCAATAA | ATP | 2.35 |
| TGCAAGAGTT | ATP | 1.01 |
| GGGTATTGAG | ATP | 0.991 |
| CGCGAAAGAA | ATP | 0.968 |
| ATTATTGAGA | ATP | 1.04 |
| ATAAATAAAA | ATP | 0.984 |
| GATTTAGTTA | ATP | 1.01 |
| TTTCCCAATT | ATP | 1.16 |
| AGATTGATCG | ATP | 1.02 |
| AAAAAGGAGG | ATP | 1 |
| GATAAATCGG | ATP | 0.981 |
| GAATGGGTAG | ATP | 0.996 |
| ATTGAGCGTG | ATP | 1.01 |
| AGTATAAAAT | ATP | 1.01 |
| TACGCCTGCA | ATP | 1.06 |
| ATTAAGACAG | ATP | 0.973 |
| AAGCACGTTG | ATP | 1.05 |
| TAATATGTTC | ATP | 1 |
| TATATGGATT | ATP | 0.999 |
| AAGGGGGGAC | ATP | 1.04 |
| TTTTAATGTG | ATP | 1 |
| AGCGTTGTG | ATP | 1.01 |
| GTGGATTTTC | ATP | 1 |
| ACAAGGGGCT | ATP | 1.02 |
| TGGTTACTGT | ATP | 1.02 |
| GCCGCGTATC | ATP | 1.65 |
| GCTGAGGCAA | ATP | 1.06 |
| GGGGGCAGCA | ATP | 1.01 |
| GGGAGGCTCG | ATP | 1 |
| TTTTGGCTAA | ATP | 1.01 |
| TTGGTTGGGG | ATP | 1 |
| TAGAAGGTTC | ATP | 1.17 |
| TTGCACACGC | ATP | 1.26 |
| GGTGTGCGGA | ATP | 1.02 |
| ACTTAAATTA | ATP | 1.03 |
| TTTTTCAGCA | ATP | 1.04 |
| TTGGCTTGTC | ATP | 0.954 |
| TCGGGGTTTA | ATP | 0.994 |
| ATCATCGGGA | ATP | 1.01 |
| AAGAAATGGT | ATP | 1.05 |
| GTATTAAGGG | ATP | 1.02 |
| CGTGGTAGGG | ATP | 0.992 |
| CGAGCGGTTG | ATP | 0.999 |
| ATCAAAGGTT | ATP | 1.03 |
| ATCAGCTGTG | ATP | 1.02 |
| GGGGACGAGC | ATP | 0.999 |
| AGCAAGGGGG | ATP | 1.09 |
| TGGCTTTGGA | ATP | 0.988 |
| GAGGGTTTTG | ATP | 0.977 |
| CGAGCTCCAT | ATP | 1.01 |
| GGGGCCAGAA | ATP | 1.01 |
| AGTTGTGCAG | ATP | 1.02 |
| TGGTCCAGCG | ATP | 0.998 |
| GGTGCATATA | ATP | 1.05 |
| CACGTCCAC | ATP | 1.44 |
| AAGGGTCCAC | ATP | 0.991 |
| ACAGGTTGAA | ATP | 0.996 |
| CGTATTTAGT | ATP | 0.98 |
| AGTTGCGATG | ATP | 0.985 |
| GTTATAGGAG | ATP | 0.99 |
| AAACTAAAAA | ATP | 1 |
| ATGGGGGGCT | ATP | 0.987 |
| CTTTTGCGCA | ATP | 1.01 |
| TTTTAGATGA | ATP | 0.966 |
| ATTATAAAGC | ATP | 1.03 |
| GTATACGGCA | ATP | 1.01 |
| TTTGGAGGGA | ATP | 1.48 |
| CCGTGCAGTA | ATP | 3.14 |
| GTGCTTCTTT | ATP | 0.99 |
| TAGTAAATCG | ATP | 1.01 |
| AGACCTCATA | ATP | 1.02 |
| AATTGTTTTT | ATP | 1 |
| CAAGCGACGG | ATP | 1.03 |
